# System: integrin α4β1
# Test Name: Integrin α4β1-mediated cell adhesion assay (Jurkat cells on VCAM)
# Assay type: cell-based
# Particulars: selectivity ratio of Jurkat (α4β1)/VCAM-1 IC50 to RPMI-8866 (α4β7)/MadCAM-1 IC50
Counter-ions that a name gives are not always drawn.
Doc: threshold 300 (exclusive). Items with α4β1/α4β7 beneath it return label 1; others return label 0.

Compound	Classification
CC#Cc1cc(-c2c(C)cccc2C)c(F)c(C(CC(=O)O)NC(=O)C(CC(C)C)n2cc(CC3CN(C(C)C)C3)c(C(F)(F)F)cc2=O)c1F (single isomer, unassigned) [Trifluoroacetate salt of compound 18-2]	label 1
Cc1cc(F)cc(C)c1-c1c(F)c(C(CC(=O)O)NC(=O)[C@H](CC(C)C)n2cc(CCC3CCCN3C)c(C(F)(F)F)cc2=O)c(F)c2c1CCC2 (single isomer, unassigned) [Trifluoroacetate salt of compound 28-2]	label 1
COc1cc(C)c(-c2c(F)c(C(CC(=O)O)NC(=O)C(CC(C)C)n3cc(CCN(C)C)c(C(F)(F)F)cc3=O)c(F)c3c2CCC3)c(C)c1 (stereo not drawn) [Compound 21-A]	label 1
Cc1cccc(C)c1-c1c(F)c(C(CC(=O)O)NC(=O)C(CC(C)C)n2cc(CCN(C)C)c(C(F)(F)F)cc2=O)c(F)c2c1CCC2 (single isomer, unassigned) [Trifluoroacetate salt of compound 20-2]	label 0
Cc1cc(F)cc(C)c1-c1c(F)c(C(CC(=O)O)NC(=O)[C@H](CC(C)C)n2cc(CC3CN(C(C)C)C3)c(C(F)(F)F)cc2=O)c(F)c2c1CCC2 (stereo partly drawn) [Trifluoroacetate salt of compound 32-2]	label 1
CC#Cc1cc(-c2c(C)cccc2C)c(F)c(C(CC(=O)O)NC(=O)[C@@H](CC(C)C)n2cc(CCN(CC)CC)c(C(F)(F)F)cc2=O)c1F (stereo partly drawn) [Trifluoroacetate salt of compound 12-2]	label 0
COc1cc(C)c(-c2c(F)c(C(CC(=O)O)NC(=O)C(CC(C)C)n3cc(CCN(C)C)c(C(F)(F)F)cc3=O)c(F)c3c2CCC3)c(C)c1 (single isomer, unassigned) [Compound 39-2]	label 1
CC#Cc1cc(-c2c(C)cccc2C)c(F)c(C(CC(=O)O)NC(=O)C(CC(C)C)n2cc(CC3CN(CC4CC4)C3)c(C(F)(F)F)cc2=O)c1F (single isomer, unassigned) [Trifluoroacetate salt of compound 19-2]	label 0
